targetEntity: T1, soluble EpoR (EposR) (human, UniProt P19235 25-250, limits assumed)
T1 construct: also called soluble recombinant human EpoR
T1 sequence (looked up): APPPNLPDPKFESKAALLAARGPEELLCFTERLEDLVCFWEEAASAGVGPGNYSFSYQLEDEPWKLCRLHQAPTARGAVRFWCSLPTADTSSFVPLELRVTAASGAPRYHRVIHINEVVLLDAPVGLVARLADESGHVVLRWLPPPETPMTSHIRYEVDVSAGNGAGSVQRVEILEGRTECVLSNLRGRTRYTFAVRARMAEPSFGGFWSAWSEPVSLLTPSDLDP
protocolSummary: SPR (BIAcore), IgG2/K sub-variant of Ab12.6, EposR as test antigen
We begin with a simple list: items and their reported kon.
Respond numerically; units are M⁻¹ s⁻¹ and should not be typed.

binder	kon (M⁻¹ s⁻¹)
Ab12.119 (antibody, IgG2, V domains shown) VH: QVQLQESGPGLVKPSETLSLTCTVSGASISSYYWSWIRQPPGKGLEWIGYIYGSGSTNYNPSLKSRVTISVDTSKNQFSLKLRSVTAADTAVYYCARERLGIGDYWGQGTLVTVSS VL: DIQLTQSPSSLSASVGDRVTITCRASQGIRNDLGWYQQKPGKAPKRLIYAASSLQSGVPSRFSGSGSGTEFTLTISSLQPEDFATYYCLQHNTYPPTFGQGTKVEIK	210000

I'd like to know its kon. The binder in question is Ab12.120 (antibody, IgG2, V domains shown) VH: QVQLQESGPGLVKPSETLSLTCTVSGASISSYYWSWIRQPPGKGLEWIGYIYYEGSTNYNPSLKSRVTISVDTSKNQFSLKLRSVTAADTAVYYCARERLGIGDYWGQGTLVTVSS VL: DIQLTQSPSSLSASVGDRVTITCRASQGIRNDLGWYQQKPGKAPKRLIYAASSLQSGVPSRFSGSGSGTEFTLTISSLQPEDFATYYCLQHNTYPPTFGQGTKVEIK
270000

I'd like to know its kon. The binder in question is Ab12.121 (antibody, IgG2, V domains shown) VH: QVQLQESGPGLVKPSETLSLTCTVSGASISSYYWSWIRQPPGKGLEWIGYIGGSGSTNYNPSLKSRVTISVDTSKNQFSLKLRSVTAADTAVYYCARERLGIGDYWGQGTLVTVSS VL: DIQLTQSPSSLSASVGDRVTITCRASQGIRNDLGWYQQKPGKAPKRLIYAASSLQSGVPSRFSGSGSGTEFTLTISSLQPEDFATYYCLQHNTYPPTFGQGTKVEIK
210000
